target: Apoptosis regulator Bcl-2 (Homo sapiens)
Sequence (P10415 whole entry): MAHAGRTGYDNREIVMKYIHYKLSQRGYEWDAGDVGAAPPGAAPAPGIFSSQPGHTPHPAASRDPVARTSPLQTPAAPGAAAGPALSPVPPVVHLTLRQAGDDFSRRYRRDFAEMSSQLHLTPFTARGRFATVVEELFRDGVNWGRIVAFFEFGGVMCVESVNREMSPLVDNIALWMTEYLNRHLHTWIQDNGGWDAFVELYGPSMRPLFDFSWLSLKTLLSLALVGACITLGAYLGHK
assayMetric: IC50 (nM)
Entry rule: numbers only, all in nM.

Field request: IC50 | item: O=C(NS(=O)(=O)c1cc([N+](=O)[O-])c2cnn(CC3CCOCC3)c2c1)c1ccc(N2CCN(CC3=C(c4ccc(Cl)cc4)CC4(CCC4)CC3)CC2)cc1Oc1cnc2[nH]ccc2c1
1.6
